Tested on: panel of 240 cancer cell lines
EXPERIMENTAL_DETAILS: Proliferation in a broad panel of 240 cancer cell lines, 2D culture (Eurofins Panlabs Oncopanel)
Assay type: cell-based
ASSAY_CONTEXT: Homo sapiens, ACHN, Kidney; read-out: IC50
pIC50: −log10 of the molar value.
PARAMETER: pIC50

Exercise: What is its pIC50 for panel of 240 cancer cell lines? Entry: NC1CCC(S(=O)(=O)N2C3CCC2CC(NC(=O)c2cc(C4CC4)on2)C3)CC1 (stereo not shown)
Key: < 4.60

---

EXPERIMENTAL_DETAILS: Caco-2 permeability
ASSAY_CONTEXT: human, Caco-2, Papp,AB, 10 µM, apical pH 6.5 / basolateral pH 7.5, 120 min
PARAMETER: Papp A→B at 120 min, 10 µM (×10⁻⁶ cm/s)
Give bare numbers, in ×10⁻⁶ cm/s.

Exercise: GET /values?readout=Papp A→B at 120 min, 10 µM&item= `O=C(NC1CN(Cc2cnn(Cc3ccc(Cl)cc3)c2)C1)c1cn(C2CC2)nn1`
Key: 2.18

---

System: panel of 240 cancer cell lines
EXPERIMENTAL_DETAILS: Proliferation in a broad panel of 240 cancer cell lines, 2D culture (Eurofins Panlabs Oncopanel)
Assay type: cell-based
ASSAY_CONTEXT: Homo sapiens, MDA-MB-231, MDA MB 231, Breast; read-out: IC50
PARAMETER: IC50

Exercise: GET /values?readout=IC50&item= NC1CCC(S(=O)(=O)N2C3CCC2CC(NC(=O)c2cc(C4CC4)on2)C3)CC1 (stereo not shown) [EPZ028862]
Key: > 25 µM

---

System: panel of 240 cancer cell lines
EXPERIMENTAL_DETAILS: Proliferation in a broad panel of 240 cancer cell lines, 2D culture (Eurofins Panlabs Oncopanel)
Format: cell-based
ASSAY_CONTEXT: Homo sapiens, MHH-PREB-1, MHH-PREB-1, Haematopoietic and lymphoid; read-out: IC50
PARAMETER: IC50

Exercise: GET /values?readout=IC50&item= NC1CCC(S(=O)(=O)N2C3CCC2CC(NC(=O)c2cc(C4CC4)on2)C3)CC1 (stereo not shown) [EPZ028862]
Key: > 25 µM

---

System: panel of 240 cancer cell lines
EXPERIMENTAL_DETAILS: Proliferation in a broad panel of 240 cancer cell lines, 2D culture (Eurofins Panlabs Oncopanel)
Assay type: cell-based
ASSAY_CONTEXT: Homo sapiens, SNU-5, SNU-5, Colon/GI; read-out: IC50
PARAMETER: IC50

Exercise: GET /values?readout=IC50&item= NC1CCC(S(=O)(=O)N2C3CCC2CC(NC(=O)c2cc(C4CC4)on2)C3)CC1 (stereo not shown)
Key: > 25 µM

---

Test system: panel of 240 cancer cell lines
EXPERIMENTAL_DETAILS: Proliferation in a broad panel of 240 cancer cell lines, 2D culture (Eurofins Panlabs Oncopanel)
Assay type: cell-based
ASSAY_CONTEXT: MX1, Haematopoietic and lymphoid; read-out: IC50
Experimental: Cell lines used in these experiments were obtained from the following sources and were cultured according to conditions specified by the respective cell banks. […] The cell lines listed above were tested for mycoplasma and were negative. Cells were authenticated by STR method or vendor protocols. All 313 cell lines in the CRIPSR pooled screen were purchased from commercial vendors and were STR authenticated and mycoplasma negative. […]
PARAMETER: IC50

Exercise: What is its IC50 for panel of 240 cancer cell lines? Entry: NC1CCC(S(=O)(=O)N2C3CCC2CC(NC(=O)c2cc(C4CC4)on2)C3)CC1 (stereo not shown) [EPZ028862]
Key: > 25 µM

---

Kindly state half-life for each of the entries shown.
EXPERIMENTAL_DETAILS: Mouse pharmacokinetic study
ASSAY_CONTEXT: male, CD-1, mouse, plasma
One number for each entry, in h.

O=C(NC1CN(Cc2cnn(Cc3ccc(Cl)cc3)c2)C1)c1cn(C2CC2)nn1	3.2

// next entry
Exercise: GET /values?readout=half-life&item= NC1CCC(S(=O)(=O)N2C3CCC2CC(NC(=O)c2cc(C4CC4)on2)C3)CC1 (centres unmarked)
Key: 2

---

Tested on: panel of 240 cancer cell lines
EXPERIMENTAL_DETAILS: Proliferation in a broad panel of 240 cancer cell lines, 2D culture (Eurofins Panlabs Oncopanel)
Format: cell-based
ASSAY_CONTEXT: DB, Haematopoietic and lymphoid; read-out: IC50
Method: Cell lines used in these experiments were obtained from the following sources and were cultured according to conditions specified by the respective cell banks. […] The cell lines listed above were tested for mycoplasma and were negative. Cells were authenticated by STR method or vendor protocols. All 313 cell lines in the CRIPSR pooled screen were purchased from commercial vendors and were STR authenticated and mycoplasma negative. […]
PARAMETER: IC50

Exercise: GET /values?readout=IC50&item= NC1CCC(S(=O)(=O)N2C3CCC2CC(NC(=O)c2cc(C4CC4)on2)C3)CC1 (stereo not shown) [EPZ028862]
Key: > 25 µM

---

EXPERIMENTAL_DETAILS: in vitro
Type: in vitro ADME
ASSAY_CONTEXT: dog, plasma, pH 7.4
PARAMETER: fraction unbound at 16 h, 1 µM
Numbers only.

Exercise: GET /values?readout=fraction unbound at 16 h, 1 µM&item= NC1CCC(S(=O)(=O)N2C3CCC2CC(NC(=O)c2cc(C4CC4)on2)C3)CC1 (stereo not shown)
Key: 0.82

---

System: panel of 240 cancer cell lines
EXPERIMENTAL_DETAILS: Proliferation in a broad panel of 240 cancer cell lines, 2D culture (Eurofins Panlabs Oncopanel)
Format: cell-based
ASSAY_CONTEXT: Homo sapiens, NCI-H508, NCI-H508, Colon/GI; read-out: IC50
Method: Cell lines used in these experiments were obtained from the following sources and were cultured according to conditions specified by the respective cell banks. […] The cell lines listed above were tested for mycoplasma and were negative. Cells were authenticated by STR method or vendor protocols. All 313 cell lines in the CRIPSR pooled screen were purchased from commercial vendors and were STR authenticated and mycoplasma negative. […]
pIC50: −log10 of the molar value.
PARAMETER: pIC50

Exercise: GET /values?readout=pIC50&item= NC1CCC(S(=O)(=O)N2C3CCC2CC(NC(=O)c2cc(C4CC4)on2)C3)CC1 (stereo not shown) [EPZ028862]
Key: < 4.60

---

EXPERIMENTAL_DETAILS: Monkey (NHP) pharmacokinetic study
Format: in vivo, male cynomolgus monkeys
ASSAY_CONTEXT: cynomolgus monkey, plasma, male Cynomolgus, IV 1 mg/kg, read-out: CLp
PARAMETER: clearance (L/h/kg)
Numbers only, in L/h/kg.

Exercise: GET /values?readout=clearance&item= NC1CCC(S(=O)(=O)N2C3CCC2CC(NC(=O)c2cc(C4CC4)on2)C3)CC1 (stereo not shown)
Key: 1.28

---

System: panel of 240 cancer cell lines
EXPERIMENTAL_DETAILS: Proliferation in a broad panel of 240 cancer cell lines, 2D culture (Eurofins Panlabs Oncopanel)
Format: cell-based
ASSAY_CONTEXT: Homo sapiens, NALM-6, NALM-6, Haematopoietic and lymphoid; read-out: IC50
pIC50: −log10 of the molar value.
PARAMETER: pIC50

Exercise: What is its pIC50 for panel of 240 cancer cell lines? Entry: NC1CCC(S(=O)(=O)N2C3CCC2CC(NC(=O)c2cc(C4CC4)on2)C3)CC1 (stereo not shown)
Key: < 4.60

---

EXPERIMENTAL_DETAILS: in vitro
Assay type: in vitro ADME, beagle dogs
ASSAY_CONTEXT: male, beagle, dog, microsomes, pH 7.4
PARAMETER: microsomal CLint at 1 µM

Exercise: GET /values?readout=microsomal CLint at 1 µM&item= NC1CCC(S(=O)(=O)N2C3CCC2CC(NC(=O)c2cc(C4CC4)on2)C3)CC1 (stereo not shown)
Key: < 3 µL/min/mg

---

EXPERIMENTAL_DETAILS: Monkey (NHP) pharmacokinetic study
Type: in vivo, male cynomolgus monkeys
ASSAY_CONTEXT: cynomolgus monkey, plasma, male Cynomolgus, PO 5 mg/kg
PARAMETER: Tmax

Exercise: GET /values?readout=Tmax&item= NC1CCC(S(=O)(=O)N2C3CCC2CC(NC(=O)c2cc(C4CC4)on2)C3)CC1 (stereo not shown)
Key: 2 h

---

EXPERIMENTAL_DETAILS: Mouse pharmacokinetic study
ASSAY_CONTEXT: male, CD-1, mouse, plasma, po, 5 mg/kg
PARAMETER: Tmax (min)
Give bare numbers, in min.

Exercise: GET /values?readout=Tmax&item= NC1CCC(S(=O)(=O)N2C3CCC2CC(NC(=O)c2cc(C4CC4)on2)C3)CC1 (stereo not shown)
Key: 19.8

---

Tested on: panel of 240 cancer cell lines
EXPERIMENTAL_DETAILS: Proliferation in a broad panel of 240 cancer cell lines, 2D culture (Eurofins Panlabs Oncopanel)
Assay type: cell-based
ASSAY_CONTEXT: Homo sapiens, SK-UT-1, SK-UT-1, Soft Tissue; read-out: IC50
PARAMETER: IC50

Exercise: GET /values?readout=IC50&item= NC1CCC(S(=O)(=O)N2C3CCC2CC(NC(=O)c2cc(C4CC4)on2)C3)CC1 (stereo not shown) [EPZ028862]
Key: > 25 µM

Entry source: paper PMC5983452
